Ref: ChEMBL document CHEMBL4825688

Each entry below lists one item and its recorded IC50 value.
system-name: UniProtKB P06276
Sequence (P06276 whole entry): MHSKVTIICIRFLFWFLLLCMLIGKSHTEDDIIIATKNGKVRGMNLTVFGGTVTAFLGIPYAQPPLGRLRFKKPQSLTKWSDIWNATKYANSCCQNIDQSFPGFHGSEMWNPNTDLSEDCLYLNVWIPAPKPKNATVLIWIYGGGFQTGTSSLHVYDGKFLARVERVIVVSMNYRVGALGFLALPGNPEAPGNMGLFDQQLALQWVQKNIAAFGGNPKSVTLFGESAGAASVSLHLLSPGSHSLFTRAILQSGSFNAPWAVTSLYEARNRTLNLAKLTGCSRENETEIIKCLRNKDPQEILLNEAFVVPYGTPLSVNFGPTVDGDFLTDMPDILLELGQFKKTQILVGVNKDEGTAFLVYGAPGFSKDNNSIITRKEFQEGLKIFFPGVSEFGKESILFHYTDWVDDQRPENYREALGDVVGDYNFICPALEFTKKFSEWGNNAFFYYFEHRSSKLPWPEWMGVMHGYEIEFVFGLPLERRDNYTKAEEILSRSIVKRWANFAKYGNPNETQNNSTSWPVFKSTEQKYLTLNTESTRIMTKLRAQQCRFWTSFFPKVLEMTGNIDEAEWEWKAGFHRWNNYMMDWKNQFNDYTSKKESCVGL
experiment-notes: Inhibition of recombinant human BuChe using S-butyrylthiocholine iodide as substrate measured after 7 mins by Ellman's method
State the answer as a number, implicitly in µM.

- smiles-record: "c1ccc2oc(C3CCNCC3)cc2c1"
  IC50 / µM: 64.4
- smiles-record: "COc1ccc(OC)c(CN2CCC(c3oc4ccccc4c3C(=O)c3ccccc3)CC2)c1"
  IC50 / µM: 33.5
- smiles-record: "COc1ccc(OC)c(CN2CCC(c3cc4ccccc4o3)CC2)c1"
  IC50 / µM: 35.5
- smiles-record: "COc1ccc(CN2CCC(c3oc4ccccc4c3C(=O)c3ccccc3)CC2)cc1"
  IC50 / µM: 62.6

**Q:** Tell me the measured IC50 of COc1ccc(CN2CCC(c3oc4ccccc4c3C(=O)c3ccc(OC)cc3)CC2)cc1 , please.
**A:** 59.7

**Q:** I have this molecule here, COc1ccc(CN2CCC(c3oc4ccccc4c3C(=O)c3ccc(OC)c(OC)c3)CC2)cc1OC , and I need its recorded IC50.
**A:** 62.2

**Q:** Given COc1ccc(C(=O)c2c(C3CCN(Cc4ccccc4)CC3)oc3ccccc23)cc1 , state its recorded IC50.
**A:** 52.1

**Q:** // query IC50 value for entry c1ccc(CN2CCC(c3cc4ccccc4o3)CC2)cc1
**A:** 54.3

**Q:** Reported IC50, molecule Oc1ccc(CN2CCC(c3cc4ccccc4o3)CC2)cc1 : ____
**A:** 64.6
